- System: Escherichia coli
- ASSAY_TEXT: Antimicrobial activity against Escherichia coli 10-3 after 18-24 hrs by two-fold serial dilution method
- Format: functional
READOUT_NAME: MIC (µg/mL)
Output spec: scalar in µg/mL, unitless text.

Find the recorded MIC belonging to COc1cc(CO/N=C2\CN(c3nc4c(cc3F)c(=O)c(C(=O)O)cn4C3CC3)CC2CN)cc(OC)c1OC.CS(=O)(=O)O (racemic) and report it. 16

Which MIC value is on record for COc1cc(CO/N=C2\CN(c3nc4c(cc3F)c(=O)c(C(=O)O)cn4C3CC3)CC2CN)cc(Cl)c1OC.CS(=O)(=O)O (racemic) ? 128

Name the reported MIC value associated with the compound CS(=O)(=O)O.NCC1CN(c2nc3c(cc2F)c(=O)c(C(=O)O)cn3C2CC2)C/C1=N\OCc1cc2c(cc1Cl)OCO2 (racemic) 16

From: ChEMBL document CHEMBL2062435
